Assay: Toxicity in human K562 cells assessed as reduction in cell viability incubated for 72 hrs by MTT assay
Type: cell-based
Conditions: read-out: LD50
observed.property: CC50 at 72 h (µM)
One number for each entry, in µM.

IN: Reported CC50 at 72 h for "CCCCCCCCCCCC(=O)O[C@H]1[C@H](O[C@@H]2[C@@H](O[C@@H]3O[C@@H](C)[C@H](OC(=O)[C@@H](C)CC)[C@@H](O)[C@H]3O)[C@H]3OC(=O)CCCCCCCCC[C@@H](CCCCC)O[C@@H]4O[C@H](C)[C@H](O)[C@H](O)[C@H]4O[C@@H]3O[C@H]2C)O[C@@H](C)[C@H](O[C@@H]2O[C@@H](C)[C@H](O)[C@@H](O)[C@H]2O)[C@H]1O" : what is it?
OUT: 20

meta.source: ChEMBL document CHEMBL4316648
